# experimentalSystem: hGIPR (Homo sapiens)
# Sequence (P48546 22-466): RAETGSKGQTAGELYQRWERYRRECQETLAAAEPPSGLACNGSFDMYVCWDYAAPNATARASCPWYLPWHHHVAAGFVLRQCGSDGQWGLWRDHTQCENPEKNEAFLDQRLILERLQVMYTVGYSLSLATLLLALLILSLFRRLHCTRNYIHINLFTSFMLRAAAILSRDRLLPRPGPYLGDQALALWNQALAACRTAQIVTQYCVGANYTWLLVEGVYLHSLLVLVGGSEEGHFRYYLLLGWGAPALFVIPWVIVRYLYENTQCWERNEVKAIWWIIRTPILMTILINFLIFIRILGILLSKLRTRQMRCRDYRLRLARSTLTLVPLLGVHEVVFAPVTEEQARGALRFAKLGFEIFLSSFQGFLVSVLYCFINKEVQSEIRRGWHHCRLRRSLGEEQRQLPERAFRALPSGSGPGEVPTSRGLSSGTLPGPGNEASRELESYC
# measurementDescription: Functional cAMP activation in the presence of 0.1% casein (no HSA);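 also: intracellular cAMP rise after 30 min at 37 °C read by HTRF against a standard curve, scaled between buffer alone (0%) and top control ligand concentration (100%), four-parameter fit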
# Assay type: cell-based
# runParameters: in the presence of 0.1% casein (no HSA); geometric mean; read-out: Relative cAMP EC50, hGIPR
pEC50: −log10 of the molar value. Starred links: 1 amine or outer side, 2 acyl side, 3 side chain; linkers in the order of their positions; H or OH if unused. Non-standard residues stand in square brackets, D forms with d. Groups on a side chain read outwards from the residue. *: point of attachment. C18 diacid = O=C(O)CCCCCCCCCCCCCCCCC(=O)*; γGlu = O=C(O)[C@H](CCC(=O)[*:2])N[*:1]; αMeL = CC(C)C[C@](C)(N)C(=O)O; Orn = NCCC[C@H](N)C(=O)O; AEEA = NCCOCCOCC(=O)O; Aib = CC(C)(N)C(=O)O
This section presents substances with their documented pEC50 values.
measurementType: pEC50

[[record]]
substance = "H-Y[Aib]QGTFTSDFS[Orn][αMeL]LDKK([γGlu-AEEA-γGlu-C18 diacid])AQ[Aib]AFIEYLLE[Aib]GESSGAPPPSGS-NH2 [Example 244]"
val = 10.01

[[record]]
substance = "H-Y[Aib]QGTFTSDFSK[αMeL]LDKK([AEEA-γGlu-C18 diacid])AQ[Aib]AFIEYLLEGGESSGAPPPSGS-NH2 [Example 146]"
val = 9.44

[[record]]
substance = "H-Y[Aib]QGTFTSDFS[Orn][αMeL]LDKK([AEEA-γGlu-C18 diacid])AQ[Aib]AFIEWLLEGGSSSGAPPPSGE-NH2 [Example 172]"
val = 9.76

